Tested on: MCF7 breast
Assay protocol: NCI tumour cell line growth inhibition, 48 h
Listed here: items and their measured TGI.

CCOC(=O)NC(=S)NC(C)c1ccccc1 (stereo not given) : > 100 µM

input: I am curious: what TGI value has been reported for "COc1cc2c(cc1OCCCCN1CCN(CCCCOc3cc4c(cc3OC)C(=O)N3CCC[C@H]3C=N4)CC1)N=C[C@@H]1CCCN1C2=O" ?
output: 45 µM

input: Next up: "BrC1=CN2C[n+]3cc(Br)c4ccccc4c3N=C2c2ccccc21"
output: 21.5 µM

input: Next up: "CNc1ncnc2c1cnn2Cc1cn(CCCCO)nn1"
output: > 100 µM

input: Next up: "CC1=NN(C(=O)c2nn(-c3ccc(Cl)cc3)cc2O)C(=O)C1"
output: > 100 µM
